B1: CPEB3 Ribozyme (parent)
chain: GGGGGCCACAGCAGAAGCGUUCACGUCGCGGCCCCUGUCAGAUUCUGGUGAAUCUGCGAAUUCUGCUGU

- Variants of: B1
- TEST SUMMARY: self-cleavage, relative activity (ratio to wild type); higher = more cleavage; co-transcriptional
Classification field: Fulfilled = self-cleavage at or over 0.3; Not fulfilled = self-cleavage under 0.3.

{"columns": ["VARIANT ID", "CLASS ASSIGNMENT"],
 "data": [
  ["U36C U53G", "Fulfilled"],
  ["C18A U67A", "Not fulfilled"],
  ["G11U A16C", "Not fulfilled"],
  ["G1A G48U", "Not fulfilled"],
  ["G3U A60G", "Not fulfilled"],
  ["C39U U55G", "Fulfilled"],
  ["U46C U64G", "Fulfilled"],
  ["C6U G56U", "Fulfilled"],
  ["C35A U55G", "Not fulfilled"],
  ["A10U U38A", "Fulfilled"],
  ["G48U U69C", "Fulfilled"],
  ["A15G A16G", "Fulfilled"],
  ["G4A C12G", "Fulfilled"],
  ["C33G C45A", "Fulfilled"],
  ["C54G C57G", "Not fulfilled"],
  ["C18A U36C", "Not fulfilled"],
  ["C22G U62G", "Not fulfilled"],
  ["U20G G65A", "Not fulfilled"],
  ["C34G G41U", "Fulfilled"],
  ["A13U U53G", "Fulfilled"],
  ["C7G C35U", "Not fulfilled"],
  ["G19C U46A", "Not fulfilled"],
  ["A40C U43C", "Fulfilled"],
  ["G3U G17C", "Not fulfilled"],
  ["G11U C12G", "Fulfilled"],
  ["C32U U49A", "Fulfilled"],
  ["G3A G47U", "Fulfilled"],
  ["A60U C66U", "Fulfilled"],
  ["U36C U46C", "Fulfilled"],
  ["G5U A8G", "Not fulfilled"],
  ["C12G U49G", "Fulfilled"],
  ["G4A U61G", "Fulfilled"],
  ["C33U U69A", "Fulfilled"],
  ["G1U U36C", "Not fulfilled"],
  ["C7G C33G", "Not fulfilled"],
  ["U36A U55A", "Not fulfilled"],
  ["G30C G68C", "Fulfilled"],
  ["G1U G17U", "Not fulfilled"],
  ["C34A C57G", "Not fulfilled"],
  ["G2C C32G", "Not fulfilled"],
  ["G25C A51C", "Not fulfilled"],
  ["U36C G68C", "Fulfilled"],
  ["A13U U64G", "Fulfilled"],
  ["G2A U44C", "Not fulfilled"],
  ["G25U U38G", "Not fulfilled"],
  ["G5A C12A", "Fulfilled"]
]}
